- Test system: PC-3 PIP/flu tumor-bearing mice
- Assay Method Text: Biodistribution studies in PC-3 PIP/flu tumor-bearing mice
- Test Conditions: 192 h p.i.
Parameter: Salivary glands (% IA/g)
Answers are plain numbers, in % IA/g.

INSERT INTO results (compound, parameter, observed) VALUES
  ('O=C(O)CCC(NC(=O)NC(CCCCNC(=O)C(Cc1ccc2ccccc2c1)NC(=O)C1CCC(CNC(=O)C(CCCCNC(=O)CN2CCN(CC(=O)O)CCN(CC(=O)O)CCN(CC(=O)O)CC2)NC(=O)CCCCCCC(=O)NC(CCCCNC(=O)CCCc2ccc(I)cc2)C(=O)O)CC1)C(=O)O)C(=O)O (stereo not shown) [^177Lu-PSMA-ALB-04, metal not drawn]', 'Salivary glands', 1.96),
  ('O=C(O)CCC(NC(=O)NC(CCCCNC(=O)C(Cc1ccc2ccccc2c1)NC(=O)C1CCC(CNC(=O)C(CCCCNC(=O)CCCc2ccc(I)cc2)NC(=O)CN2CCN(CC(=O)O)CCN(CC(=O)O)CCN(CC(=O)O)CC2)CC1)C(=O)O)C(=O)O (stereo not shown) [^177Lu-PSMA-ALB-03, metal not drawn]', 'Salivary glands', 1.55),
  ('O=C(O)CCC(NC(=O)NC(CCCCNC(=O)C(Cc1ccc2ccccc2c1)NC(=O)C1CCC(n2cc(CC(NC(=O)CN3CCN(CC(=O)O)CCN(CC(=O)O)CCN(CC(=O)O)CC3)C(=O)NC(CCCCNC(=O)CCCc3ccc(I)cc3)C(=O)O)nn2)CC1)C(=O)O)C(=O)O (stereo not shown) [^177Lu-PSMA-ALB-01, metal not drawn]', 'Salivary glands', 1.78);

API: the following record is the query input.
Inquiry: Returns the measured Salivary glands for the input compound. Input: O=C(O)CCC(NC(=O)NC(CCCCNC(=O)C(Cc1ccc2ccccc2c1)NC(=O)C1CCC(CNC(=O)C(CCCCNC(=O)CN2CCN(CC(=O)O)CCN(CC(=O)O)CCN(CC(=O)O)CC2)NC(=O)CC(NC(=O)CC(NC(=O)CCCc2ccc(I)cc2)C(=O)O)C(=O)O)CC1)C(=O)O)C(=O)O (stereo not shown) [^177Lu-PSMA-ALB-05, metal not drawn]
Reply text: 0.37

Cited source: patent US11629201B2
